- Tested on: Escherichia coli TOP10
- experiment_description: shrunken log2 fold change of peptide-encoding DNA abundance (4.5 h post-induction vs induction); higher = less antimicrobial activity (less host growth inhibition)
- condition_summary: time post-induction: 4.5 h; library: site-saturation at positions 5, 18, 19, 20
Tag: MET if measured shrunken log2 fold change is not below -0.06, NOT MET if it is.

Query: Dear colleague, could you confirm whether "RRIRQRPPRLPRPRPRPPPWPRP" has shrunken log2 fold change at or above -0.06?
Response: MET

Query: Record "RRIRKRPPRLPRPRPRPMTCPRP" ; criterion: shrunken log2 fold change no lower than -0.06. Met?
Response: MET

Query: In plain terms: is recorded shrunken log2 fold change at least -0.06 for "RRIRIRPPRLPRPRPRPEHNPRP" ?
Response: NOT MET

Query: Could you verify whether the entry "RRIRERPPRLPRPRPRPNLNPRP" shows shrunken log2 fold change of no less than -0.06?
Response: NOT MET

Query: Exam item: decide whether the reported shrunken log2 fold change for "RRIRVRPPRLPRPRPRPKGFPRP" is at least -0.06.
Response: MET

Query: Entry "RRIRTRPPRLPRPRPRPGWQPRP" : is its shrunken log2 fold change no less than -0.06?
Response: MET

Query: Please indicate if the recorded shrunken log2 fold change for "RRIRDRPPRLPRPRPRPARWPRP" meets or exceeds -0.06.
Response: MET

Query: Would you say "RRIRWRPPRLPRPRPRPALCPRP" shows shrunken log2 fold change at minimum -0.06?
Response: MET

Query: In plain terms: is recorded shrunken log2 fold change at least -0.06 for "RRIRHRPPRLPRPRPRPRTKPRP" ?
Response: MET

Query: Could you please find out whether "RRIRGRPPRLPRPRPRPKAPPRP" has shrunken log2 fold change that meets -0.06 or exceeds it?
Response: MET

Query: Please tell me: is the sequence "RRIRQRPPRLPRPRPRPAMYPRP" at or over -0.06 in terms of shrunken log2 fold change?
Response: NOT MET

Query: Can "RRIRNRPPRLPRPRPRPYLGPRP" be said to have shrunken log2 fold change at or above -0.06?
Response: NOT MET

Query: Reported shrunken log2 fold change at or above -0.06? "RRIRARPPRLPRPRPRPMHFPRP"
Response: MET

Query: Could you tell me if the measured shrunken log2 fold change of "RRIRWRPPRLPRPRPRPNSVPRP" reaches -0.06 or more?
Response: NOT MET

Query: Is the recorded value of shrunken log2 fold change equal to or greater than -0.06 for this sequence? "RRIRERPPRLPRPRPRPLWHPRP"
Response: NOT MET

Query: Entry "RRIRTRPPRLPRPRPRPNSVPRP" : is its shrunken log2 fold change no less than -0.06?
Response: NOT MET

Query: Check the entry "RRIRTRPPRLPRPRPRPCGAPRP" : does shrunken log2 fold change equal or exceed -0.06?
Response: MET

Query: Kindly determine if shrunken log2 fold change recorded for "RRIRMRPPRLPRPRPRPENFPRP" is above or exactly -0.06.
Response: MET

Query: Hi, just wondering whether "RRIRTRPPRLPRPRPRPVCDPRP" shows shrunken log2 fold change of -0.06 or higher.
Response: MET

Query: Does the reported shrunken log2 fold change for "RRIRERPPRLPRPRPRPDLSPRP" fall at or above the -0.06 mark?
Response: NOT MET

Query: State whether the measured shrunken log2 fold change reaches -0.06, counting equality as reaching it, for "RRIRIRPPRLPRPRPRPWDIPRP"
Response: MET

Query: Threshold query (shrunken log2 fold change >= -0.06) on "RRIRSRPPRLPRPRPRPMSGPRP"
Response: MET

Query: Assess whether reported shrunken log2 fold change for "RRIRKRPPRLPRPRPRPYCKPRP" sits at -0.06 or higher.
Response: MET

Query: # bool: shrunken log2 fold change of "RRIRYRPPRLPRPRPRPYAPPRP" >= -0.06
Response: NOT MET

Query: Could you please find out whether "RRIRLRPPRLPRPRPRPHSDPRP" has shrunken log2 fold change that meets -0.06 or exceeds it?
Response: NOT MET

Query: Would you say "RRIRLRPPRLPRPRPRPMIHPRP" shows shrunken log2 fold change at minimum -0.06?
Response: NOT MET

Query: Hello, I need to know if "RRIRVRPPRLPRPRPRPVIVPRP" has measured shrunken log2 fold change not below -0.06. Thanks!
Response: NOT MET

Query: Can "RRIRYRPPRLPRPRPRPGLTPRP" be said to have shrunken log2 fold change at or above -0.06?
Response: NOT MET

Query: Does the sequence "RRIRIRPPRLPRPRPRPQTEPRP" have recorded shrunken log2 fold change that is -0.06 or more?
Response: NOT MET

Query: Confirm if shrunken log2 fold change reported for the sequence "RRIRVRPPRLPRPRPRPHIQPRP" is -0.06 or above.
Response: NOT MET

###

- System: Escherichia coli TOP10
- experiment_description: shrunken log2 fold change of peptide-encoding DNA abundance (4.5 h post-induction vs induction); higher = less antimicrobial activity (less host growth inhibition)
- condition_summary: time post-induction: 4.5 h; library: site-saturation at positions 5, 18, 19, 20
quantity_name: shrunken log2 fold change
Lab note: write the figure by itself, no unit.

Query: Fill in the recorded shrunken log2 fold change for this sequence, with Escherichia coli TOP10 as test system: "RRIRYRPPRLPRPRPRPQPMPRP"
Response: -0.159

Query: GET /values?readout=shrunken log2 fold change&system=Escherichia coli TOP10&item= "RRIRNRPPRLPRPRPRPKIEPRP"
Response: -0.0398

Query: Give the reported shrunken log2 fold change for "RRIRVRPPRLPRPRPRPQTCPRP" (system: Escherichia coli TOP10).
Response: -0.193

Query: Provide the documented shrunken log2 fold change with Escherichia coli TOP10 as the system for "RRIRMRPPRLPRPRPRPKYQPRP"
Response: 0.0592

Query: Request - read-out shrunken log2 fold change | tested on Escherichia coli TOP10 | sequence "RRIRHRPPRLPRPRPRPKACPRP"
Response: -0.01

Query: Recall the recorded shrunken log2 fold change for "RRIRVRPPRLPRPRPRPYYTPRP" with Escherichia coli TOP10 and state it.
Response: -1.39

Query: Which shrunken log2 fold change is reported with Escherichia coli TOP10 for this entry: "RRIRTRPPRLPRPRPRPYRTPRP" ?
Response: 0.0638

Query: // lookup shrunken log2 fold change | system=Escherichia coli TOP10 | key= "RRIRNRPPRLPRPRPRPQWQPRP"
Response: -0.0605

Query: # get_value(readout= shrunken log2 fold change, system= Escherichia coli TOP10) for "RRIRQRPPRLPRPRPRPHMTPRP"
Response: -0.391

Query: Escherichia coli TOP10 / shrunken log2 fold change / "RRIRVRPPRLPRPRPRPKKFPRP" : value?
Response: -0.0429

Query: // fetch Escherichia coli TOP10 shrunken log2 fold change for "RRIRTRPPRLPRPRPRPWGHPRP"
Response: -0.066

Query: # get_value(readout= shrunken log2 fold change, system= Escherichia coli TOP10) for "RRIRNRPPRLPRPRPRPMYKPRP"
Response: 0.0573

Query: Query the reported shrunken log2 fold change for Escherichia coli TOP10; item: "RRIRVRPPRLPRPRPRPDPKPRP"
Response: 0.203

Query: Kindly state the measured shrunken log2 fold change obtained for "RRIRLRPPRLPRPRPRPCDFPRP" with Escherichia coli TOP10.
Response: 0.092

Query: Give Escherichia coli TOP10 shrunken log2 fold change for "RRIRVRPPRLPRPRPRPGNDPRP"
Response: -0.0387

###

- Tested on: Escherichia coli TOP10;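 also: peptides expressed intracellularly from a pBAD plasmid library in pooled LB shake-flask culture, induced with 0.3% L-arabinose, DNA abundance read by NGS, three biological replicates, DESeq2 with apeglm shrinkage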
- experiment_description: shrunken log2 fold change of peptide-encoding DNA abundance (4.5 h post-induction vs induction); higher = less antimicrobial activity (less host growth inhibition)
- condition_summary: time post-induction: 4.5 h; library: site-saturation at positions 5, 18, 19, 20
Ranges used to classify shrunken log2 fold change: low = under -0.04, moderate = from -0.04 up to 0.1, high = 0.1 and over

Query: # bin lookup: classify "RRIRWRPPRLPRPRPRPSYNPRP" by its shrunken log2 fold change
Response: low

Query: Which shrunken log2 fold change category applies to "RRIRERPPRLPRPRPRPMTPPRP" here?
Response: moderate

Query: Category of "RRIRTRPPRLPRPRPRPNFAPRP" :
Response: moderate

Query: Which shrunken log2 fold change category applies to "RRIRLRPPRLPRPRPRPMEKPRP" here?
Response: moderate

Query: Class (by measured shrunken log2 fold change) for "RRIRARPPRLPRPRPRPQSQPRP"
Response: moderate

Query: Exam item: assign "RRIRGRPPRLPRPRPRPLTYPRP" to the correct category.
Response: high

Query: Which of the defined bands does the recorded shrunken log2 fold change of "RRIRDRPPRLPRPRPRPCTSPRP" sit within?
Response: moderate

Query: Band assignment needed for "RRIRIRPPRLPRPRPRPVHIPRP" please.
Response: low

Query: Classify this sequence: "RRIRDRPPRLPRPRPRPIVQPRP"
Response: low

Query: Quick check: band for "RRIRHRPPRLPRPRPRPGRTPRP"
Response: high

Query: Please indicate the class for "RRIRKRPPRLPRPRPRPYNHPRP" based on its shrunken log2 fold change.
Response: low

Query: Exercise: read the entry "RRIRWRPPRLPRPRPRPKCHPRP" and state which class it falls under.
Response: high

Query: Place this sequence in its band: "RRIRKRPPRLPRPRPRPAMDPRP"
Response: high

Query: Band for "RRIRQRPPRLPRPRPRPGQSPRP" ?
Response: moderate
